# assayed_system: Tyrosine-protein kinase JAK3 (Homo sapiens, UniProt P52333)
# Sequence (P52333 whole entry): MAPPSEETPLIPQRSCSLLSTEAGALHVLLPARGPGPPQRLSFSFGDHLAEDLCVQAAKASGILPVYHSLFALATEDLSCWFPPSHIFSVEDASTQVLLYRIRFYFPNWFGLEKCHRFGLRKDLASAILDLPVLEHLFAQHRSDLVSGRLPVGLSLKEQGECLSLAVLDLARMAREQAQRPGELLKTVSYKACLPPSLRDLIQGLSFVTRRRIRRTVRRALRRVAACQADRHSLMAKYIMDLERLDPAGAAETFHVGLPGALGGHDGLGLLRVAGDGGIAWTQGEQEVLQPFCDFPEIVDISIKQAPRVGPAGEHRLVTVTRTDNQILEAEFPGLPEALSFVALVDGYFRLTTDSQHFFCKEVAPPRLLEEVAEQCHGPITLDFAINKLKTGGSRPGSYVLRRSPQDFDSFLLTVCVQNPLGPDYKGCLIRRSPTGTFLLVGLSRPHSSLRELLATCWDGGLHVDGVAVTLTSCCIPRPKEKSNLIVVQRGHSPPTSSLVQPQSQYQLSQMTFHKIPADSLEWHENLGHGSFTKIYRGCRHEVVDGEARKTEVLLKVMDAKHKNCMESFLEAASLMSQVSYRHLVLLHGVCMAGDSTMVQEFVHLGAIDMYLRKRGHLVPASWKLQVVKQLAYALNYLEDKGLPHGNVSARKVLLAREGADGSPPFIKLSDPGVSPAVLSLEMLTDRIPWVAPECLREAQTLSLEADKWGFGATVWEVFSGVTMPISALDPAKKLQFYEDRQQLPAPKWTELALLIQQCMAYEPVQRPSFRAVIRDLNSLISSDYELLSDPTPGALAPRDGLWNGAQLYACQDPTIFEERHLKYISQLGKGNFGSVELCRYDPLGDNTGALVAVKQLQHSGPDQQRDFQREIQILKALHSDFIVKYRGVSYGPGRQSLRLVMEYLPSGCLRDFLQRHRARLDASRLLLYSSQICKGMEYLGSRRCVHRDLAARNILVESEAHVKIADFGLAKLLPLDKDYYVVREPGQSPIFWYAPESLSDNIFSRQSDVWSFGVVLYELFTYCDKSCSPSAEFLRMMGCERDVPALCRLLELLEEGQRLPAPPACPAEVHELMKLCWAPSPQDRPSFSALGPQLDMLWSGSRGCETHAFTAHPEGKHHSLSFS
# method_notes: Inhibition of JAK3 (unknown origin) using 16 uM of ATP and Tyr6 peptide by Z'-LYTE kinase assay
Quick reference for IC50 among some compounds
Return type: number; implicit unit nM.

substance_smiles	reading
Cc1ccc(-c2nc3cc(C(N)=O)ccc3n2CCN)cc1	2300
NCCCc1nc2cc(C(N)=O)ccc2n1CCN	1100

Tell me measured IC50 for NCCn1c(-c2ccc(C(F)(F)F)cc2)nc2cc(C(N)=O)ccc21 please.
2100

Tell me measured IC50 for NCCn1c(-c2ccc(O)cc2)nc2cc(C(N)=O)ccc21 please.
2400

Tell me measured IC50 for CC(C)c1ccc(-c2nc3cc(C(N)=O)ccc3n2CCN)cc1 please.
1900

Tell me measured IC50 for NCCn1c(-c2ccc(O)cc2O)nc2cc(C(N)=O)ccc21 please.
2900

Tell me measured IC50 for NCCc1nc2cc(C(N)=O)ccc2n1CCN please.
1500

---

# assayed_system: Tyrosine-protein kinase JAK2 (Homo sapiens, UniProt O60674)
# Sequence (O60674 whole entry): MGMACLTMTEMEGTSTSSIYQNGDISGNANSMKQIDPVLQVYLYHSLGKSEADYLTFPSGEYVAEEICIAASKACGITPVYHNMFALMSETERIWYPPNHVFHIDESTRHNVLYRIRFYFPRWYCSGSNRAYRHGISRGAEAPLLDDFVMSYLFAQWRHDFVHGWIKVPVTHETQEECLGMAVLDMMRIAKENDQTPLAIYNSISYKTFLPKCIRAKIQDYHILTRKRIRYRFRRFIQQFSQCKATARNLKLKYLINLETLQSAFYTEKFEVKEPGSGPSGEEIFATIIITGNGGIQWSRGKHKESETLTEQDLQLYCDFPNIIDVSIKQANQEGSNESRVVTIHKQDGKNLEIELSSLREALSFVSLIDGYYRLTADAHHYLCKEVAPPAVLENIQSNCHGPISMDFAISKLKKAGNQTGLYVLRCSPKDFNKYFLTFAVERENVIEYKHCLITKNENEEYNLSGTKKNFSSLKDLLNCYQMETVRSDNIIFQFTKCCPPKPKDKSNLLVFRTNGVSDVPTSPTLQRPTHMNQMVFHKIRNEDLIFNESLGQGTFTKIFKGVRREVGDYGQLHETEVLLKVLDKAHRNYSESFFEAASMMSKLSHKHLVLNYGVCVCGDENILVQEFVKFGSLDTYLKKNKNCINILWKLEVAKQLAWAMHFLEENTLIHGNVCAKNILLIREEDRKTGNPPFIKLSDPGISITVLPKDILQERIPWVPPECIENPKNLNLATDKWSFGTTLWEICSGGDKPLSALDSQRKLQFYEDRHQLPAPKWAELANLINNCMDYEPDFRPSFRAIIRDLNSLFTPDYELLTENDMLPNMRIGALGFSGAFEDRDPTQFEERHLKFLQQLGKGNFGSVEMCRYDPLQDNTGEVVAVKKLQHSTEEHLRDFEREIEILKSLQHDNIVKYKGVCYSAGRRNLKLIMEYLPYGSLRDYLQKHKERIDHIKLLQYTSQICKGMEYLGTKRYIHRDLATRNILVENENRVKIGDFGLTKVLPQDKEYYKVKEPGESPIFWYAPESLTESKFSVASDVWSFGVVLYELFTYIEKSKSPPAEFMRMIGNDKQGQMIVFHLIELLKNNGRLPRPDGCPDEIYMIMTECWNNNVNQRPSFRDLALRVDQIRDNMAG
# method_notes: Inhibition of JAK2 (unknown origin) using 35 uM of ATP and Tyr6 peptide by Z'-LYTE kinase assay
Quick reference for pIC50 among some compounds
Field pIC50 (float): negative decimal logarithm of the concentration in molar.

Take a look at these entries with their results.
substance_smiles	assayed_system	pIC50
NCCn1c(-c2ccc(C(F)(F)F)cc2)nc2cc(C(N)=O)ccc21	Tyrosine-protein kinase JAK2 (Homo sapiens, UniProt O60674)	5.32
NCCCn1c(-c2ccccc2)nc2cc(C(N)=O)ccc21	Tyrosine-protein kinase JAK2 (Homo sapiens, UniProt O60674)	4.69
NCCn1c(-c2cccnc2N)nc2cc(C(N)=O)ccc21	Tyrosine-protein kinase JAK2 (Homo sapiens, UniProt O60674)	5.33

Field: next compound
Tell me measured pIC50 for NCCCn1c(CCN)nc2cc(C(N)=O)ccc21 please.
5.66

---

# method_notes: Oral bioavailability in Sprague-Dawley rat at 10 mg/kg
# Type: ADME, organism-based
# condition_description: in vivo
endpoint_label: bioavailability (%)
Return type: number; implicit unit %.

Tell me measured bioavailability for NCCn1c(C2CCNCC2)nc2cc(C(N)=O)ccc21 please.
0.7

---

# method_notes: Permeability of the compound by PAMPA
# Assay type: physicochemical
# condition_description: read-out: permeability
endpoint_label: Papp (×10⁻⁶ cm/s)
Return type: number; implicit unit ×10⁻⁶ cm/s.

Tell me measured Papp for NCCn1c(C2CCNCC2)nc2cc(C(N)=O)ccc21 please.
0.1

---

Quick reference for IC50 among some molecules
# assayed_system: Tyrosine-protein kinase JAK3 (Homo sapiens)
# method_notes: Inhibition of JAK3 (unknown origin) using 16 uM of ATP and Tyr6 peptide by Z'-LYTE kinase assay
Return type: number; implicit unit nM.

Take a look at these entries with their results.
substance_smiles	IC50 [nM]
NCCCn1c(CCN)nc2cc(C(N)=O)ccc21	1500
NCCn1c(-c2cccnc2N)nc2cc(C(N)=O)ccc21	1900
N#Cc1ccc(-c2nc3cc(C(N)=O)ccc3n2CCN)cc1	1900
NCCn1c(-c2ccncc2)nc2cc(C(N)=O)ccc21	10500

Field: next molecule
Tell me measured IC50 for NCCn1c(C2CCCCC2)nc2cc(C(N)=O)ccc21 please.
2500
